- studyConditions: in acetone, 290.65 K

{"testSmiles": "Nc1cc(Cl)ccc1C(=O)O", "solubility (mole fraction)": 0.0243}

---

- studyConditions: in toluene, 308.15 K
endpoint: solubility (mole fraction)

{"testSmiles": "Nc1cc(Cl)ccc1C(=O)O", "endpoint": "solubility (mole fraction)", "valueReported": 0.000597}

---

- studyConditions: in acetone, 293.15 K

{"testSmiles": "Nc1cc(Cl)ccc1C(=O)O", "solubility (mole fraction)": 0.0261}

---

- studyConditions: in n-propanol, 303.15 K
endpoint: solubility (mole fraction)

{"testSmiles": "Nc1cc(Cl)ccc1C(=O)O", "endpoint": "solubility (mole fraction)", "valueReported": 0.0198}
